# protocol_notes: Solubility in different solvents (aliquot addition until dissolution)
# Type: physicochemical
# recorded_conditions: organic solvent or mixture, thermodynamic from solid, Toluene
Please go through the items and note down their solubility.

Notebook: O.O.O=c1c(-c2ccc(O)cc2)coc2cc(O)cc(O)c12.[Na] [genistein sodium salt dihydrate] , solubility read as < 9900 µg/mL

Notebook: `O=c1c(-c2ccc(O)cc2)coc2cc(O)cc(O)c12` , solubility read as < 10100 µg/mL

====

# protocol_notes: Solubility in different solvents (aliquot addition until dissolution)
# Type: physicochemical
# recorded_conditions: organic solvent or mixture, thermodynamic from solid, Ethanol (EtOH)
measured_property: solubility (mg/mL)
Answer with a number only, understood to be in mg/mL.

Notebook: O.O.O=c1c(-c2ccc(O)cc2)coc2cc(O)cc(O)c12.[Na] [genistein sodium salt dihydrate] , solubility read as 98
